Ref: patent US12577234B2

# testedTarget: rat mAChR M4 (Rattus norvegicus, UniProt P08485)
# Construct: expressed in transfected cells; host or cells: CHO-K1 (ATCC), stably co-expressing chimeric G protein Gqi5
# measurementNotes: mAChR M4 cell-based functional assay (calcium mobilization, EC80 acetylcholine), rat M4
# condition: Table 10
# Experimental: Human or rat M4 cDNA, along with the chimeric G protein Gqi5, were transfected into Chinese hamster ovary (CHO-K1) cells purchased from the American Type Culture Collection using Lipofectamine2000. […] Calcium flux was measured using the Functional Drug Screening System (FDSS) 6000 or 7000 (Hamamatsu Corporation, Tokyo, Japan) as an increase in the fluorescent static ratio. […] Agonist activity was analyzed as a concentration-dependent increase in calcium mobilization upon compound addition. […]
Reported Rat M4 Emin is given for each of the following compounds.
State the answer as a number, implicitly in %.

Sample answers from the record:
Per the records, this compound ( `c1cc(C2CC2)ncc1-c1ccc(N[C@H]2C[C@@H]3CN(CC4CCOCC4)C[C@@H]3C2)nn1` ) has Rat M4 Emin equal to 8

Per the records, this compound ( `CC(=O)Nc1ccc(-c2ccc(O[C@H]3C[C@@H]4CN(CC5CCOCC5)C[C@@H]4C3)nn2)cc1` ) has Rat M4 Emin equal to 6

Per the records, this compound ( `CC(=O)Nc1ccc(-c2ccc(N[C@H]3C[C@@H]4CN(CCC(C)(C)C)C[C@@H]4C3)nn2)cc1` ) has Rat M4 Emin equal to 3

Per the records, this compound ( `FC(F)Oc1ccc(-c2ccc(N[C@H]3C[C@@H]4CN(CC5CCOCC5)C[C@@H]4C3)nn2)cc1` ) has Rat M4 Emin equal to 6

Per the records, this compound ( `c1cc(-c2ccc(N[C@H]3C[C@@H]4CN(CC5CCOCC5)C[C@@H]4C3)nn2)cs1` ) has Rat M4 Emin equal to 13

Next:
Per the records, this compound ( `CC(C)(C)CCN1C[C@H]2C[C@H](Nc3ccc(-c4ccc(F)cc4Cl)nn3)C[C@H]2C1` ) has Rat M4 Emin equal to 3

Per the records, this compound ( `CC(C)(C)CCN1C[C@H]2C[C@H](Oc3ccc(Cl)nn3)C[C@H]2C1` ) has Rat M4 Emin equal to 17

Per the records, this compound ( `c1csc(-c2ccc(N[C@H]3C[C@@H]4CN(CC5CCOCC5)C[C@@H]4C3)nn2)c1` ) has Rat M4 Emin equal to 14

---

# testedTarget: rat mAChR M4 (Rattus norvegicus)
# Sequence (P08485 1-478): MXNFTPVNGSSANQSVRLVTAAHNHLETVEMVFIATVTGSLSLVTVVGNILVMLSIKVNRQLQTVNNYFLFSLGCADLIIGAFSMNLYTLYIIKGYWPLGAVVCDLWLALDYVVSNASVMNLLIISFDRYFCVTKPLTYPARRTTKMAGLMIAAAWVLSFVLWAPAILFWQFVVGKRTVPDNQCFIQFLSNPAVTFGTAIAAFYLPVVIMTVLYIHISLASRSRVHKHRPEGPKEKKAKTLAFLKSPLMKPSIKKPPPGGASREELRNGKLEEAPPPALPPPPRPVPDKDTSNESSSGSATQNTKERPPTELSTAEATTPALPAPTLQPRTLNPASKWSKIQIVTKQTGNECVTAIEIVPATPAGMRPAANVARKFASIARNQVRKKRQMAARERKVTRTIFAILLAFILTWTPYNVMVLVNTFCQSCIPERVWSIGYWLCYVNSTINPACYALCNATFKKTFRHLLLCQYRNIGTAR
# measurementNotes: mAChR M4 cell-based functional assay (calcium mobilization, EC80 acetylcholine), rat M4
# condition: Table 10; M4/Gqi5/CHO-K1 cells, decrease of EC80 acetylcholine response
measurementLabel: pIC50
Reminder that pIC50 is minus the log10 of a molar concentration.

Per the records, this compound ( `c1cc(-c2ccc(N[C@H]3C[C@@H]4CN(CC5CCOCC5)C[C@@H]4C3)nn2)cs1` ) has pIC50 equal to 5.65

Per the records, this compound ( `c1csc(-c2ccc(N[C@H]3C[C@@H]4CN(CC5CCOCC5)C[C@@H]4C3)nn2)c1` ) has pIC50 equal to 6.22

Per the records, this compound ( `CC(=O)Nc1ccc(-c2ccc(O[C@H]3C[C@@H]4CN(CC5CCOCC5)C[C@@H]4C3)nn2)cc1` ) has pIC50 equal to 6.00

Let's switch to this compound now.
Per the records, this compound ( `CC(=O)Nc1ccc(-c2ccc(N[C@H]3C[C@@H]4CN(CCC(C)(C)C)C[C@@H]4C3)nn2)cc1` ) has pIC50 equal to 7.77

---

# testedTarget: human mAChR M4 (Homo sapiens)
# Construct: expressed in transfected cells; host or cells: CHO-K1 (ATCC), stably co-expressing chimeric G protein Gqi5
# Sequence (P08173 1-479): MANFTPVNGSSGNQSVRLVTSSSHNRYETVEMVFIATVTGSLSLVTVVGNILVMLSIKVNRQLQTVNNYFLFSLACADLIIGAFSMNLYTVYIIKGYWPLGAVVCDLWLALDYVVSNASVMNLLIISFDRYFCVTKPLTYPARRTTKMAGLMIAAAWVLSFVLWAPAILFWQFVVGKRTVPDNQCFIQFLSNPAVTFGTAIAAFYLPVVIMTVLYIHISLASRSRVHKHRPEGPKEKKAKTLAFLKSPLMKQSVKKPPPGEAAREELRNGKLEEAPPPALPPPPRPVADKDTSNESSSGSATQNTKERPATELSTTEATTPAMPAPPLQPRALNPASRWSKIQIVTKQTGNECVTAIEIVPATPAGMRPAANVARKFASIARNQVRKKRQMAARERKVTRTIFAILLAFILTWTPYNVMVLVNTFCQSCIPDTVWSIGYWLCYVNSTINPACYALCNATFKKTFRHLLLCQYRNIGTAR
# measurementNotes: mAChR M4 cell-based functional assay (calcium mobilization, EC80 acetylcholine), human M4
# condition: Table 9; M4/Gqi5/CHO-K1 cells, decrease of EC80 acetylcholine response
measurementLabel: IC50 (µM)
State the answer as a number, implicitly in µM.

Sample answers from the record:
Per the records, this compound ( `Fc1ccc(Cl)c(-c2ccc(N[C@H]3C[C@@H]4CN(CC5CCCCC5)C[C@@H]4C3)nn2)c1` ) has IC50 equal to 0.0086

Per the records, this compound ( `Cc1nn(C)cc1-c1ccc(O[C@@H]2C[C@@H]3CN(CC4CCCCC4)C[C@@H]3C2)nn1` ) has IC50 equal to 0.272

Per the records, this compound ( `Cc1cnn(C)c1-c1ccc(N[C@H]2C[C@@H]3CN(Cc4ccccc4)C[C@@H]3C2)nn1` ) has IC50 equal to 0.118

Next:
Per the records, this compound ( Cc1cnn(C)c1-c1ccc(OCC2C[C@@H]3CN(CC4CCCOC4)C[C@@H]3C2)nn1 (stereo partly shown) ) has IC50 equal to 4.6

Per the records, this compound ( Cc1cnn(C)c1-c1ccc(NC(=O)C2C[C@@H]3CN(CCC(C)(C)C)C[C@@H]3C2)nn1 (stereo partly shown) ) has IC50 equal to 0.263

Per the records, this compound ( Fc1ccc(Cl)c(-c2ccc(N[C@H]3C[C@@H]4CN(CC5CCCOC5)C[C@@H]4C3)nn2)c1 (stereo partly shown) ) has IC50 equal to 0.0012

Per the records, this compound ( Fc1ccc(Cl)c(-c2ccc(OCC3C[C@@H]4CN(CC5CCCCC5)C[C@@H]4C3)nn2)c1 (stereo partly shown) ) has IC50 equal to 0.443

---

Reported Rat M4 Emin is given for each of the following molecules.
# testedTarget: rat mAChR M4 (Rattus norvegicus, UniProt P08485)
# Construct: expressed in transfected cells; host or cells: CHO-K1 (ATCC), stably co-expressing chimeric G protein Gqi5
# measurementNotes: mAChR M4 cell-based functional assay (calcium mobilization, EC80 acetylcholine), rat M4
# condition: Table 10
# Protocol: Human or rat M4 cDNA, along with the chimeric G protein Gqi5, were transfected into Chinese hamster ovary (CHO-K1) cells purchased from the American Type Culture Collection using Lipofectamine2000. […] Calcium flux was measured using the Functional Drug Screening System (FDSS) 6000 or 7000 (Hamamatsu Corporation, Tokyo, Japan) as an increase in the fluorescent static ratio. […] Agonist activity was analyzed as a concentration-dependent increase in calcium mobilization upon compound addition. […]
Note to self: number, then unit, no commentary.

Sample answers from the record:
Per the records, this molecule ( `CC(=O)Nc1ccc(-c2ccc(O[C@H]3C[C@@H]4CN(CCC(C)(C)C)C[C@@H]4C3)nn2)cc1` ) has Rat M4 Emin equal to 4%

Per the records, this molecule ( `COc1ccc(-c2ccc(N[C@H]3C[C@@H]4CN(CC5CCOCC5)C[C@@H]4C3)nn2)cc1F` ) has Rat M4 Emin equal to 6%

Per the records, this molecule ( `CC(C)(C)CCN1C[C@H]2C[C@H](Oc3ccc(-c4cc(F)ccc4Cl)nn3)C[C@H]2C1` ) has Rat M4 Emin equal to 3%

Next:
Per the records, this molecule ( `CC(C)(C)CCN1C[C@H]2C[C@H](Oc3ccc(-c4ccc5c(c4)OCO5)nn3)C[C@H]2C1` ) has Rat M4 Emin equal to 3%
